test: Relative singlet oxygen quantum yield (1O2 phosphorescence, Rose Bengal standard); assay type: physicochemical; design: key: relative to Rose Bengal standard (ΦΔ = 0.75); conditions: pH = 10 media; relative, RB as the standard
READOUT_TYPE: singlet oxygen quantum yield (ΦΔ)

- SUBSTANCE_SMILES: "O=C(O)c1ccccc1-c1c2cc(I)c(=O)c(I)c-2oc2c(I)c(O)c(I)cc12"
  RECORDED_RESULT: 0.64
- SUBSTANCE_SMILES: "O=C(O)c1c(Cl)c(Cl)c(Cl)c(Cl)c1-c1c2cc(Br)c(=O)c(Br)c-2oc2c(Br)c(O)c(Br)cc12"
  RECORDED_RESULT: 0.26
- SUBSTANCE_SMILES: "O=C(O)c1c(Cl)c(Cl)c(Cl)c(Cl)c1-c1c2ccc(=O)cc-2oc2cc(O)ccc12"
  RECORDED_RESULT: 0.05
- SUBSTANCE_SMILES: "O=C(O)c1ccccc1-c1c2ccc(=O)c(I)c-2oc2c(I)c(O)ccc12"
  RECORDED_RESULT: 0.63
- SUBSTANCE_SMILES: "O=C(O)c1ccccc1-c1c2ccc(=O)c(Br)c-2oc2c(Br)c(O)ccc12"
  RECORDED_RESULT: 0.19

###

experiment: Photophysical characterization (absorption, fluorescence, phosphorescence, lifetime); type: physicochemical; conditions: fluorescence lifetime; 5 μM in 0.5% DMSO, 0.1 M NaOH
Measured τfl by item

- MOLECULE: "O=C(O)c1ccccc1-c1c2cc(Cl)c(=O)c(Cl)c-2oc2c(Cl)c(O)c(Cl)cc12 [TCF-1, Tetrachloro-fluorescein-1]"
  τfl, ns: 4.09
- MOLECULE: "O=C(O)c1c(Cl)c(Cl)c(Cl)c(Cl)c1-c1c2cc(Cl)c(=O)c(Cl)c-2oc2c(Cl)c(O)c(Cl)cc12 [OCF, Octachloro-fluorescein]"
  τfl, ns: 4.33
- MOLECULE: "O=C(O)c1c(Cl)c(Cl)c(Cl)c(Cl)c1-c1c2ccc(=O)cc-2oc2cc(O)ccc12 [TCF-2, Tetrachloro-fluorescein-2]"
  τfl, ns: 4.87
- MOLECULE: "O=C(O)c1ccccc1-c1c2ccc(=O)c(Br)c-2oc2c(Br)c(O)ccc12 [DBF, Dibromo-fluorescein]"
  τfl, ns: 1.99
- MOLECULE: "O=C(O)c1c(Cl)c(Cl)c(Cl)c(Cl)c1-c1c2cc(I)c(=O)c(I)c-2oc2c(I)c(O)c(I)cc12 [RB, Tetraiodo-tetrachloro-fluorescein]"
  τfl, ns: 0.01
- MOLECULE: "O=C(O)c1c(Cl)c(Cl)c(Cl)c(Cl)c1-c1c2cc(Br)c(=O)c(Br)c-2oc2c(Br)c(O)c(Br)cc12 [PB, Tetrabromo-tetrachloro-fluorescein]"
  τfl, ns: 1.25
- MOLECULE: "O=C(O)c1ccccc1-c1c2ccc(=O)c(I)c-2oc2c(I)c(O)ccc12 [DIF, Diiodo-fluorescein]"
  τfl, ns: 0.01
- MOLECULE: "O=C(O)c1ccccc1-c1c2cc(I)c(=O)c(I)c-2oc2c(I)c(O)c(I)cc12 [TIF, 2′,4′,5′,7′-tetraiodofluorescein]"
  τfl, ns: 0.01

###

assay: Photophysical characterization (absorption, fluorescence, phosphorescence, lifetime); format: physicochemical
Measured knr by item
READOUT_TYPE: knr (s⁻¹)

- SUBSTANCE_SMILES: "O=C(O)c1ccccc1-c1c2cc(Cl)c(=O)c(Cl)c-2oc2c(Cl)c(O)c(Cl)cc12"
  READOUT_TYPE: "knr"
  OUTPUT_UNIT: "s⁻¹"
  RECORDED_RESULT: "7.8e+07"
- SUBSTANCE_SMILES: "O=C(O)c1c(Cl)c(Cl)c(Cl)c(Cl)c1-c1c2cc(Cl)c(=O)c(Cl)c-2oc2c(Cl)c(O)c(Cl)cc12"
  READOUT_TYPE: "knr"
  OUTPUT_UNIT: "s⁻¹"
  RECORDED_RESULT: "9.3e+07"
- SUBSTANCE_SMILES: "O=C(O)c1c(Cl)c(Cl)c(Cl)c(Cl)c1-c1c2cc(I)c(=O)c(I)c-2oc2c(I)c(O)c(I)cc12"
  READOUT_TYPE: "knr"
  OUTPUT_UNIT: "s⁻¹"
  RECORDED_RESULT: "9.97e+10"
- SUBSTANCE_SMILES: "O=C(O)c1c(Cl)c(Cl)c(Cl)c(Cl)c1-c1c2cc(Br)c(=O)c(Br)c-2oc2c(Br)c(O)c(Br)cc12"
  READOUT_TYPE: "knr"
  OUTPUT_UNIT: "s⁻¹"
  RECORDED_RESULT: "6.64e+08"
- SUBSTANCE_SMILES: "O=C(O)c1ccccc1-c1c2ccc(=O)c(Br)c-2oc2c(Br)c(O)ccc12"
  READOUT_TYPE: "knr"
  OUTPUT_UNIT: "s⁻¹"
  RECORDED_RESULT: "3.5e+08"
- SUBSTANCE_SMILES: "O=C(O)c1c(Cl)c(Cl)c(Cl)c(Cl)c1-c1c2ccc(=O)cc-2oc2cc(O)ccc12"
  READOUT_TYPE: "knr"
  OUTPUT_UNIT: "s⁻¹"
  RECORDED_RESULT: "3e+07"
- SUBSTANCE_SMILES: "O=C(O)c1ccccc1-c1c2cc(I)c(=O)c(I)c-2oc2c(I)c(O)c(I)cc12"
  READOUT_TYPE: "knr"
  OUTPUT_UNIT: "s⁻¹"
  RECORDED_RESULT: "9.97e+10"
- SUBSTANCE_SMILES: "O=C(O)c1ccccc1-c1c2ccc(=O)c(I)c-2oc2c(I)c(O)ccc12"
  READOUT_TYPE: "knr"
  OUTPUT_UNIT: "s⁻¹"
  RECORDED_RESULT: "9.99e+10"

###

Measured λPh by item
experiment: Photophysical characterization (absorption, fluorescence, phosphorescence, lifetime); format: physicochemical; conditions: 2% DMSO

- SUBSTANCE_SMILES: "O=C(O)c1ccccc1-c1c2ccc(=O)c(Br)c-2oc2c(Br)c(O)ccc12"
  λPh / nm: 685
- SUBSTANCE_SMILES: "O=C(O)c1c(Cl)c(Cl)c(Cl)c(Cl)c1-c1c2cc(I)c(=O)c(I)c-2oc2c(I)c(O)c(I)cc12"
  λPh / nm: 732
- SUBSTANCE_SMILES: "O=C(O)c1ccccc1-c1c2ccc(=O)c(I)c-2oc2c(I)c(O)ccc12"
  λPh / nm: 699
- SUBSTANCE_SMILES: "O=C(O)c1c(Cl)c(Cl)c(Cl)c(Cl)c1-c1c2cc(Cl)c(=O)c(Cl)c-2oc2c(Cl)c(O)c(Cl)cc12"
  λPh / nm: 676
- SUBSTANCE_SMILES: "O=C(O)c1c(Cl)c(Cl)c(Cl)c(Cl)c1-c1c2cc(Br)c(=O)c(Br)c-2oc2c(Br)c(O)c(Br)cc12"
  λPh / nm: 730
- SUBSTANCE_SMILES: "O=C(O)c1ccccc1-c1c2cc(I)c(=O)c(I)c-2oc2c(I)c(O)c(I)cc12"
  λPh / nm: 701
- SUBSTANCE_SMILES: "O=C(O)c1c(Cl)c(Cl)c(Cl)c(Cl)c1-c1c2ccc(=O)cc-2oc2cc(O)ccc12"
  λPh / nm: 637
- SUBSTANCE_SMILES: "O=C(O)c1ccccc1-c1c2cc(Cl)c(=O)c(Cl)c-2oc2c(Cl)c(O)c(Cl)cc12"
  λPh / nm: 655

###

Assay: Photophysical characterization (absorption, fluorescence, phosphorescence, lifetime)
Format: physicochemical
Details: 2% DMSO
Description: Section S6. Photophysical Characterizations S6.1 Absorption, fluorescence, and phosphorescence spectra Fluorescein and its derivatives were dissolved in DMSO to obtain 1 mM stock solutions. The stock solutions were diluted with deionized water to 10 μM. Supplementary Figure 20. The absorption (black), fluorescence (blue), and phosphorescence (red, slit 25 nm) spectra of FL. Supplementary Figure 21. The absorption (black), fluorescence (blue), and phosphorescence (red, slit 25 nm) spectra of DCF. […]

- SUBSTANCE_SMILES: "O=C(O)c1c(Cl)c(Cl)c(Cl)c(Cl)c1-c1c2ccc(=O)cc-2oc2cc(O)ccc12"
  OUTPUT_UNIT: "nm"
  λAbs: 511
- SUBSTANCE_SMILES: "O=C(O)c1ccccc1-c1c2cc(Cl)c(=O)c(Cl)c-2oc2c(Cl)c(O)c(Cl)cc12"
  OUTPUT_UNIT: "nm"
  λAbs: 515
- SUBSTANCE_SMILES: "O=C(O)c1c(Cl)c(Cl)c(Cl)c(Cl)c1-c1c2cc(Br)c(=O)c(Br)c-2oc2c(Br)c(O)c(Br)cc12"
  OUTPUT_UNIT: "nm"
  λAbs: 539
- SUBSTANCE_SMILES: "O=C(O)c1ccccc1-c1c2ccc(=O)c(Br)c-2oc2c(Br)c(O)ccc12"
  OUTPUT_UNIT: "nm"
  λAbs: 504
- SUBSTANCE_SMILES: "O=C(O)c1ccccc1-c1c2cc(I)c(=O)c(I)c-2oc2c(I)c(O)c(I)cc12"
  OUTPUT_UNIT: "nm"
  λAbs: 527
- SUBSTANCE_SMILES: "O=C(O)c1c(Cl)c(Cl)c(Cl)c(Cl)c1-c1c2cc(Cl)c(=O)c(Cl)c-2oc2c(Cl)c(O)c(Cl)cc12"
  OUTPUT_UNIT: "nm"
  λAbs: 537
- SUBSTANCE_SMILES: "O=C(O)c1ccccc1-c1c2ccc(=O)c(I)c-2oc2c(I)c(O)ccc12"
  OUTPUT_UNIT: "nm"
  λAbs: 527
- SUBSTANCE_SMILES: "O=C(O)c1c(Cl)c(Cl)c(Cl)c(Cl)c1-c1c2cc(I)c(=O)c(I)c-2oc2c(I)c(O)c(I)cc12"
  OUTPUT_UNIT: "nm"
  λAbs: 550
